Cited source for all entries: patent US4298745A

For each of the compounds below, state its pIC50.
- Test system: collagen induced platelet aggregation in human platelet rich plasma
- protocolNotes: inhibition of platelet aggregation induced in vitro by collagen in human platelet rich plasma
- Assay type: cell-based
- statedConditions: Table C, read-out: IC50 against collagen induced aggregation
Note: pIC50 values are expressed as the negative base-10 logarithm of concentration in M.

Entry under test: CCCCC(C)C(C)(O)CCN1C(=O)N(C)C(=O)C1CC=CCCCC(=O)O (centres unmarked) . Its pIC50 was 4.55

Entry under test: CCCCCCC(C)(O)CCN1C(=O)N(C)C(=O)C1CC=CCCCC(=O)O (centres unmarked) . Its pIC50 was 4.66
